tested on: PSMA^+ PC-3 PIP tumors; test: MicroPET/CT imaging of mice transplanted with prostate cancer cell lines; type: in vivo, nude mouse; details: 270 min after injection
I'd be grateful if you could share measured intake of mouse organ: Tumor (PIP) for these entries.
Numbers only, in % ID/g.

Sample records with intake of mouse organ: Tumor (PIP):
O=C(O)CCC(NC(=O)NC(CCCCN(CC(=O)O)C(=O)COCCNC(=O)C(CCCCNC(=O)CCCc1ccc(I)cc1)NC(=O)CN1CCN2CCN3CCN(CC1)CC(=O)[O][68Ga]([O]C(=O)C2)[O]C(=O)C3)C(=O)O)C(=O)O (stereo not shown) [[^68Ga]1k]; 15.70
O=C(O)CCC(NC(=O)NC(CCCCN(CC(=O)O)C(=O)COCCOCCNC(=O)C(CCCCNC(=O)CCCc1ccc(I)cc1)NC(=O)CN1CCN2CCN3CCN(CC1)CC(=O)[O][68Ga]([O]C(=O)C2)[O]C(=O)C3)C(=O)O)C(=O)O (stereo not shown) [[^68Ga]1h]; 14.20
O=C(O)CCC(NC(=O)NC(CCCCN(CC(=O)O)C(=O)COCCOCCNC(=O)CN1CCN2CCN3CCN(CC1)CC(=O)[O][68Ga]([O]C(=O)C2)[O]C(=O)C3)C(=O)O)C(=O)O (stereo not shown) [[^68Ga]1e]; 4.05

Now for another entry.
Recall and state the measured intake of mouse organ: Tumor (PIP) for Cc1ccc(CCCC(=O)NCCCCC(NC(=O)CN2CCN3CCN4CCN(CC2)CC(=O)[O][68Ga]([O]C(=O)C3)[O]C(=O)C4)C(=O)NCCOCCOCC(=O)N(CCCCC(NC(=O)NC(CCC(=O)O)C(=O)O)C(=O)O)CC(=O)O)cc1 (stereo not shown) [[^68Ga]1g] .
13.00

----------
I'd be grateful if you could share measured intake of mouse organ: Bladder for these entries.
system: PSMA^+ PC-3 PIP tumors; experiment: MicroPET/CT imaging of mice transplanted with prostate cancer cell lines; format: in vivo, nude mouse; settings: 30 min after injection
One number for each entry, in % ID/g.

Sample records with intake of mouse organ: Bladder:
O=C(O)CCC(NC(=O)NC(CCCCN(CC(=O)O)C(=O)COCCNC(=O)C(CCCCNC(=O)CCCc1ccc(I)cc1)NC(=O)CN1CCN2CCN3CCN(CC1)CC(=O)[O][68Ga]([O]C(=O)C2)[O]C(=O)C3)C(=O)O)C(=O)O (stereo not shown) [[^68Ga]1k]; 4.68
Cc1ccc(CCCC(=O)NCCCCC(NC(=O)CN2CCN3CCN4CCN(CC2)CC(=O)[O][68Ga]([O]C(=O)C3)[O]C(=O)C4)C(=O)NCCOCCOCC(=O)N(CCCCC(NC(=O)NC(CCC(=O)O)C(=O)O)C(=O)O)CC(=O)O)cc1 (stereo not shown) [[^68Ga]1g]; 13.51

For each of the items listed, what is its intake of mouse organ: Bladder?
1. O=C(O)CCC(NC(=O)NC(CCCCN(CC(=O)O)C(=O)COCCOCCNC(=O)C(CCCCNC(=O)CCCc1ccc(I)cc1)NC(=O)CN1CCN2CCN3CCN(CC1)CC(=O)[O][68Ga]([O]C(=O)C2)[O]C(=O)C3)C(=O)O)C(=O)O (stereo not shown) [[^68Ga]1h]
2. O=C(O)CCC(NC(=O)NC(CCCCN(CC(=O)O)C(=O)COCCOCCNC(=O)CN1CCN2CCN3CCN(CC1)CC(=O)[O][68Ga]([O]C(=O)C2)[O]C(=O)C3)C(=O)O)C(=O)O (stereo not shown) [[^68Ga]1e]

1: 3.14; 2: 55.82

----------
I'd be grateful if you could share measured intake of mouse organ: Bladder for these entries.
test system: PSMA^+ PC-3 PIP tumors; assay: MicroPET/CT imaging of mice transplanted with prostate cancer cell lines; assay type: in vivo, nude mouse; details: 20 min after injection
Answers are plain numbers, in % ID/g.

Sample records with intake of mouse organ: Bladder:
O=C(O)CCC(NC(=O)NC(CCCCN(CC(=O)O)C(=O)COCCOCCNC(=O)CN1CCN2CCN3CCN(CC1)CC(=O)[O][68Ga]([O]C(=O)C2)[O]C(=O)C3)C(=O)O)C(=O)O (stereo not shown) [[^68Ga]1e]; 47.31
O=C(O)CCC(NC(=O)NC(CCCCN(CC(=O)O)C(=O)COCCOCCNC(=O)C(CCCCNC(=O)CCCc1ccc(I)cc1)NC(=O)CN1CCN2CCN3CCN(CC1)CC(=O)[O][68Ga]([O]C(=O)C2)[O]C(=O)C3)C(=O)O)C(=O)O (stereo not shown) [[^68Ga]1h]; 2.91
Cc1ccc(CCCC(=O)NCCCCC(NC(=O)CN2CCN3CCN4CCN(CC2)CC(=O)[O][68Ga]([O]C(=O)C3)[O]C(=O)C4)C(=O)NCCOCCOCC(=O)N(CCCCC(NC(=O)NC(CCC(=O)O)C(=O)O)C(=O)O)CC(=O)O)cc1 (stereo not shown) [[^68Ga]1g]; 6.98

Recall and state the measured intake of mouse organ: Bladder for O=C(O)CCC(NC(=O)NC(CCCCN(CC(=O)O)C(=O)COCCNC(=O)C(CCCCNC(=O)CCCc1ccc(I)cc1)NC(=O)CN1CCN2CCN3CCN(CC1)CC(=O)[O][68Ga]([O]C(=O)C2)[O]C(=O)C3)C(=O)O)C(=O)O (stereo not shown) [[^68Ga]1k] .
4.68

----------
system: PSMA^+ PC-3 PIP tumors; assay: MicroPET/CT imaging of mice transplanted with prostate cancer cell lines; type: in vivo, nude mouse; settings: 30 min after injection
Measure: intake of mouse organ: Muscle
Reply with the number and its unit after it.

Sample records with intake of mouse organ: Muscle:
Cc1ccc(CCCC(=O)NCCCCC(NC(=O)CN2CCN3CCN4CCN(CC2)CC(=O)[O][68Ga]([O]C(=O)C3)[O]C(=O)C4)C(=O)NCCOCCOCC(=O)N(CCCCC(NC(=O)NC(CCC(=O)O)C(=O)O)C(=O)O)CC(=O)O)cc1 (stereo not shown) [[^68Ga]1g]; 1.69 ± 1.78 % ID/g
O=C(O)CCC(NC(=O)NC(CCCCN(CC(=O)O)C(=O)COCCOCCNC(=O)C(CCCCNC(=O)CCCc1ccc(I)cc1)NC(=O)CN1CCN2CCN3CCN(CC1)CC(=O)[O][68Ga]([O]C(=O)C2)[O]C(=O)C3)C(=O)O)C(=O)O (stereo not shown) [[^68Ga]1h]; 2.98 ± 0.34 % ID/g
O=C(O)CCC(NC(=O)NC(CCCCN(CC(=O)O)C(=O)COCCOCCNC(=O)CN1CCN2CCN3CCN(CC1)CC(=O)[O][68Ga]([O]C(=O)C2)[O]C(=O)C3)C(=O)O)C(=O)O (stereo not shown) [[^68Ga]1e]; 0.95 ± 0.13 % ID/g

Now for another entry.
Recall and state the measured intake of mouse organ: Muscle for O=C(O)CCC(NC(=O)NC(CCCCN(CC(=O)O)C(=O)COCCNC(=O)C(CCCCNC(=O)CCCc1ccc(I)cc1)NC(=O)CN1CCN2CCN3CCN(CC1)CC(=O)[O][68Ga]([O]C(=O)C2)[O]C(=O)C3)C(=O)O)C(=O)O (stereo not shown) [[^68Ga]1k] .
3.09 ± 0.91 % ID/g

----------
I'd be grateful if you could share measured intake of mouse organ: Liver for these entries.
system: PSMA^+ PC-3 PIP tumors; assay: MicroPET/CT imaging of mice transplanted with prostate cancer cell lines; type: in vivo, nude mouse; conditions: 150 min after injection
Give bare numbers, in % ID/g.

Sample records with intake of mouse organ: Liver:
O=C(O)CCC(NC(=O)NC(CCCCN(CC(=O)O)C(=O)COCCOCCNC(=O)CN1CCN2CCN3CCN(CC1)CC(=O)[O][68Ga]([O]C(=O)C2)[O]C(=O)C3)C(=O)O)C(=O)O (stereo not shown) [[^68Ga]1e]; 0.06
O=C(O)CCC(NC(=O)NC(CCCCN(CC(=O)O)C(=O)COCCOCCNC(=O)C(CCCCNC(=O)CCCc1ccc(I)cc1)NC(=O)CN1CCN2CCN3CCN(CC1)CC(=O)[O][68Ga]([O]C(=O)C2)[O]C(=O)C3)C(=O)O)C(=O)O (stereo not shown) [[^68Ga]1h]; 2.80
Cc1ccc(CCCC(=O)NCCCCC(NC(=O)CN2CCN3CCN4CCN(CC2)CC(=O)[O][68Ga]([O]C(=O)C3)[O]C(=O)C4)C(=O)NCCOCCOCC(=O)N(CCCCC(NC(=O)NC(CCC(=O)O)C(=O)O)C(=O)O)CC(=O)O)cc1 (stereo not shown) [[^68Ga]1g]; 0.45

Now for another entry.
Recall and state the measured intake of mouse organ: Liver for O=C(O)CCC(NC(=O)NC(CCCCN(CC(=O)O)C(=O)COCCNC(=O)C(CCCCNC(=O)CCCc1ccc(I)cc1)NC(=O)CN1CCN2CCN3CCN(CC1)CC(=O)[O][68Ga]([O]C(=O)C2)[O]C(=O)C3)C(=O)O)C(=O)O (stereo not shown) [[^68Ga]1k] .
5.00
